Tested on: compound 48/80-induced lethality
ASSAY: Protection of rats from compound 48/80-induced lethality
Assay type: in vivo, rat (male, inbred Wistar strain)
CONDITION_LABEL: Rattus norvegicus; rats treated subcutaneously or orally 1 hour before compound 48/80 0.5 mg/kg intravenously; 50% of animals protected; survival after 4 hours; read-out: Compound 48/80 lethality test in rats-ED50
Reported ED50 values for the following molecules.
State just the number; it will be interpreted in mg/kg.

The following molecules have reported results that may help.
CCOCCn1c(NC2CCN(CCSc3ccccc3)CC2)nc2cccnc21 | 0.04
CCOCCn1c(NC2CCN(CCNc3nc4cnccc4[nH]3)CC2)nc2cccnc21 | 0.02
CCOCCn1c(NC2CCN(CCc3c(C)nc4ccccn4c3=O)CC2)nc2cccnc21 | 0.01
CCOCCn1c(NC2CCN(CCc3c(C)nc4sccn4c3=O)CC2)nc2cccnc21 | 0.02
CCOCCn1c(NC2CCN(CCCC(=O)c3ccc(F)cc3)CC2)nc2cccnc21 | 0.02
CCOCCn1c(NC2CCN(CCc3ccccn3)CC2)nc2cccnc21 | 0.02

// query Find the recorded ED50 belonging to CCOCCn1c(NC2CCN(CCNC(=O)c3ccoc3)CC2)nc2cccnc21 and report it.
// result 0.04

// query Find the recorded ED50 belonging to CCOCCn1c(NC2CCN(CCNC(=O)c3cccn3C)CC2)nc2cccnc21 and report it.
// result 0.02

// query Find the recorded ED50 belonging to CCOCCn1c(NC2CCN(CCc3c(C)nc4n(c3=O)CCCC4)CC2)nc2cccnc21 and report it.
// result 0.04
